molecules and their reported IC50
- test_system: Amine oxidase [flavin-containing] B (Rattus norvegicus)
- method_summary: Inhibition of Monoamine oxidase B in rat primary hepatocytes
- Type: cell-based, Hepatocyte

[[record]]
chemical_smiles = "CC(=O)NC[C@H]1CN(c2ccc(/C=C(\\Br)c3cccc(CO)c3)c(F)c2)C(=O)O1"
endpoint_label = "IC50"
result = "> 150 µM"


Any idea what IC50 was measured for CC(=O)NC[C@H]1CN(c2ccc(/C=C(\Br)c3cccc(C#N)c3)c(F)c2)C(=O)O1 ?
> 150 µM

Any idea what IC50 was measured for COC(=O)c1cccc(/C(Br)=C/c2ccc(N3C[C@H](CNC(C)=O)OC3=O)cc2F)c1 ?
> 300 µM

Any idea what IC50 was measured for CC(=O)NC[C@H]1CN(c2ccc(/C=C(\F)c3cccc(C(C)=O)c3)c(F)c2)C(=O)O1 ?
> 300 µM

Any idea what IC50 was measured for CC(=O)NC[C@H]1CN(c2ccc(/C=C(\F)c3cccc(C=O)c3)c(F)c2)C(=O)O1 ?
> 300 µM

Any idea what IC50 was measured for CC(=O)NC[C@H]1CN(c2ccc(/C=C/c3cncc(C#N)c3)c(F)c2)C(=O)O1 ?
> 300 µM

Any idea what IC50 was measured for CC(=O)NC[C@H]1CN(c2ccc(/C=C(\Br)c3ccc(C#N)cc3)c(F)c2)C(=O)O1 ?
> 150 µM

Any idea what IC50 was measured for CC(=O)NC[C@H]1CN(c2ccc(/C=C(\Br)c3ccccc3C#N)c(F)c2)C(=O)O1 ?
> 150 µM

Any idea what IC50 was measured for CC(=O)NC[C@H]1CN(c2ccc(/C=C(\F)c3cncnc3)c(F)c2)C(=O)O1 ?
475 µM

Any idea what IC50 was measured for CC(=O)NC[C@H]1CN(c2ccc(/C=C(\Br)c3c(C)oc[n+]3C)c(F)c2)C(=O)O1 ?
21 µM

Any idea what IC50 was measured for CC(=O)NC[C@H]1CN(c2ccc(/C=C(\F)c3nnn(C)n3)c(F)c2)C(=O)O1 ?
> 300 µM

Any idea what IC50 was measured for CC(=O)NC[C@H]1CN(c2ccc(/C=C(\F)c3cccnc3)c(F)c2)C(=O)O1 ?
98 µM

----------
- test_system: Amine oxidase [flavin-containing] B (Rattus norvegicus, UniProt P19643)
- Sequence (P19643 whole entry): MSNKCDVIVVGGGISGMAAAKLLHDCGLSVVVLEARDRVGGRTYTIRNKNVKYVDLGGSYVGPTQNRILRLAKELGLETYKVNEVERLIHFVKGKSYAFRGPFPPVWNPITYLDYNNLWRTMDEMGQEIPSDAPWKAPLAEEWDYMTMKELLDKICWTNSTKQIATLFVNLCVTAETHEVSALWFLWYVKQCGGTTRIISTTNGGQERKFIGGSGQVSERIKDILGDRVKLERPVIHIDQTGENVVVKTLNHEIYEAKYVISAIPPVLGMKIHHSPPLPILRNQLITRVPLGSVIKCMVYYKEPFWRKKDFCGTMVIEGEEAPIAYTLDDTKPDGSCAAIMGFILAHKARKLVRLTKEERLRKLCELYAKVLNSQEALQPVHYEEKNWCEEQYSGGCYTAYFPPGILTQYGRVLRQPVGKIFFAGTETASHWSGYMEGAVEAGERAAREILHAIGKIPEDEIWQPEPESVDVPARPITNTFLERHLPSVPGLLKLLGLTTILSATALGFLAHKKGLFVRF
- method_summary: Inhibition of Monoamine oxidase B in rat primary hepatocytes
- Format: cell-based, Hepatocyte
endpoint_label: IC50

[[record]]
chemical_smiles = "CC(=O)NC[C@H]1CN(c2ccc(/C=C(\\Br)c3cccnc3)c(F)c2)C(=O)O1"
endpoint_label = "IC50"
result = "121 µM"


Any idea what IC50 was measured for CC(=O)NC[C@H]1CN(c2ccc(/C=C(\F)c3cccc(C#N)c3)c(F)c2)C(=O)O1 ?
> 300 µM

Any idea what IC50 was measured for CC(=O)NC[C@H]1CN(c2ccc(/C=C(\Br)c3ccncc3)c(F)c2)C(=O)O1 ?
186 µM

Any idea what IC50 was measured for CC(=O)NC[C@H]1CN(c2ccc(/C=C(\Br)c3cncc(C#N)c3)c(F)c2)C(=O)O1 ?
> 300 µM

Any idea what IC50 was measured for CC(=O)NC[C@H]1CN(c2ccc(/C=C(\F)c3cncc(C#N)c3)c(F)c2)C(=O)O1 ?
> 300 µM

Any idea what IC50 was measured for CC(=O)NC[C@H]1CN(c2ccc(/C=C(\F)c3nccs3)c(F)c2)C(=O)O1 ?
< 9.4 µM

Any idea what IC50 was measured for CC(=O)NC[C@H]1CN(c2ccc(/C=C/c3cccnc3)c(F)c2)C(=O)O1 ?
59 µM

Any idea what IC50 was measured for CC(=O)NC[C@H]1CN(c2ccc(/C=C(\Br)c3cccc(C=O)c3)c(F)c2)C(=O)O1 ?
> 300 µM

Any idea what IC50 was measured for CC(=O)NC[C@H]1CN(c2ccc(/C=C(\Br)c3ccccc3)c(F)c2)C(=O)O1 ?
< 9.4 µM
